Recorded Relative Protease Enzyme Activity by entry
test system: protease; assay: Protease activity retention in detergent use solution (4000 ppm, 5 GPG water; peptidyl substrate, glycine buffer pH 9.0); format: biochemical; details: base formula, phosphonate at 0.1% elemental phosphorus, use solution at 120° F., time 120 min
result_type: Relative Protease Enzyme Activity (%)

compound: O=C(O)CCC(CC(=O)O)(C(=O)O)P(=O)(O)O (stereo not shown)
measurement_unit: %
recorded_result: 2.04
--
compound: CC(O)(P(=O)(O)O)P(=O)(O)O
measurement_unit: %
recorded_result: 2.44
--
compound: O=P(O)(O)CN(CP(=O)(O)O)CP(=O)(O)O
measurement_unit: %
recorded_result: 106.19
--
compound: NCP(=O)(O)O
measurement_unit: %
recorded_result: 43.34
